- Subject of test: human LOXL2 (Homo sapiens (Human))
- Sequence (Q9Y4K0 26-774): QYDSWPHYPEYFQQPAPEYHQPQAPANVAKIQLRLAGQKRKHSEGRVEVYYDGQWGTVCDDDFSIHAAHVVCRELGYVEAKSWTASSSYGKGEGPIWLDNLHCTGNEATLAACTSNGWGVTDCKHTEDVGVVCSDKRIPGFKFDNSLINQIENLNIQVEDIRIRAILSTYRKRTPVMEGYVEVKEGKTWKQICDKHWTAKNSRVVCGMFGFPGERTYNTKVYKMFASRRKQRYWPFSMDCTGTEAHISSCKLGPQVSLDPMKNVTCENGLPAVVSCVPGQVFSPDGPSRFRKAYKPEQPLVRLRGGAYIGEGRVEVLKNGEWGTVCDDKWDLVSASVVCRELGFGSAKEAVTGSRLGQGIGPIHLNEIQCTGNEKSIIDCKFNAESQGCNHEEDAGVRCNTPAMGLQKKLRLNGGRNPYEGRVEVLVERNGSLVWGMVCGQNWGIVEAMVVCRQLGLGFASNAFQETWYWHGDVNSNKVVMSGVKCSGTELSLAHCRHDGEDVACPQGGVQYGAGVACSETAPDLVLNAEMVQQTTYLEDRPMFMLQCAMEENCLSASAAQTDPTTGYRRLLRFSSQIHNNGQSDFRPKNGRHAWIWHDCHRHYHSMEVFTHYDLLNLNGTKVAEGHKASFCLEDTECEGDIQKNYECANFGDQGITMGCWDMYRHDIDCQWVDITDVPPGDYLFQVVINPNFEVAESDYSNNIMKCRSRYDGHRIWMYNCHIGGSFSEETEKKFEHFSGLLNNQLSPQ
pIC50: −log10 of the molar value. Where a name gives a salt, the structure may show the parent alone.
Quantity kind: pIC50

Query: Query (molecule): CCc1cccc(NC(=O)c2cccc(Oc3cc(CN)cc(C(F)(F)F)n3)c2)c1 [Compound 1-245, hydrochloride] ; field requested: pIC50
Reply: > 6.52

Query: Query (molecule): NCc1cc(Oc2cccc(C(=O)NCCn3cncn3)c2)nc(C(F)(F)F)c1 [Compound 1-14, hydrochloride] ; field requested: pIC50
Reply: > 6.52

Query: Query (molecule): NCc1cc(Oc2cccc(C(=O)NO)c2)nc(C(F)(F)F)c1 [Compound 1-218, hydrochloride] ; field requested: pIC50
Reply: 6.00 to 6.52

Query: Query (molecule): NCc1cc(Oc2cccc(C(=O)Nc3cncnc3)c2)nc(C(F)(F)F)c1 [Compound 1-226, hydrochloride] ; field requested: pIC50
Reply: > 6.52

Query: Query (molecule): NCc1cc(Oc2cccc(C(=O)N3CCC(CO)CC3)c2)nc(C(F)(F)F)c1 [Compound 1-204, hydrochloride] ; field requested: pIC50
Reply: > 6.52

Query: Query (molecule): NCc1cc(Oc2cccc(C(=O)N3CCC[C@H]3C(=O)O)c2)nc(C(F)(F)F)c1 [Compound 1-24, hydrochloride] ; field requested: pIC50
Reply: < 6.00

Query: Query (molecule): CS(=O)(=O)CCNC(=O)c1cncc(Oc2cc(CN)cc(C(F)(F)F)n2)c1 [Compound 1-53, hydrochloride] ; field requested: pIC50
Reply: > 6.52

Query: Query (molecule): CS(=O)(=O)OC1CN(C(=O)c2cccc(Oc3cc(CN)cc(C(F)(F)F)n3)c2)CC1F (stereo not shown) [Compound 1-214, hydrochloride] ; field requested: pIC50
Reply: > 6.52

Query: Query (molecule): C#C[C@@H](CC(=O)OC)NC(=O)c1cccc(Oc2cc(CN)cc(C(F)(F)F)n2)c1 [Compound 1-222, hydrochloride] ; field requested: pIC50
Reply: > 6.52

Query: Query (molecule): NCc1cc(Oc2cccc(C(=O)N3C[C@@H](F)[C@@H](O)C3)c2)nc(C(F)(F)F)c1 (racemic) [Compound 1-211, hydrochloride] ; field requested: pIC50
Reply: > 6.52

Query: Query (molecule): NCc1cc(Oc2cccc(-c3ccccc3)c2)nc(C(F)(F)F)c1 [Compound 1-2, trifluoroacetate] ; field requested: pIC50
Reply: > 6.52

Query: Query (molecule): CC(C)(O)CNC(=O)c1cccc(Oc2cc(CN)cc(C(F)(F)F)n2)c1 [Compound 1-32, hydrochloride] ; field requested: pIC50
Reply: > 6.52

Query: Query (molecule): NCc1cc(Oc2cccc(C(=O)N3CC4(CCOCC4)C3)c2)nc(C(F)(F)F)c1 [Compound 1-207, hydrochloride] ; field requested: pIC50
Reply: > 6.52

Query: Query (molecule): Cc1cc(=O)oc2cc(NC(=O)c3cccc(Oc4cc(CN)cc(C(F)(F)F)n4)c3)ccc12 [Compound 1-249, hydrochloride] ; field requested: pIC50
Reply: > 6.52

Query: Query (molecule): Cl.NCc1cc(Oc2cccc3c2CCC(=O)N3)nc(C(F)(F)F)c1 [Compound 1-59, hydrochloride] ; field requested: pIC50
Reply: > 6.52

Query: Query (molecule): Cc1cc(=O)n(Cc2cc(CN)cc(C(F)(F)F)n2)c(=O)n1Cc1ccncn1 [Compound 1-243, hydrochloride] ; field requested: pIC50
Reply: 6.00 to 6.52

Query: Query (molecule): NCc1cc(O[C@H]2CCCN(C(=O)Nc3ccccc3)C2)nc(C(F)(F)F)c1 [Compound 1-44, trifluoroacetate] ; field requested: pIC50
Reply: > 6.52

Query: Query (molecule): NCc1cc(Oc2cccc(C(=O)NCCCCc3cn(-c4ccccc4)nn3)c2)nc(C(F)(F)F)c1 [Compound 1-217, hydrochloride] ; field requested: pIC50
Reply: > 6.52

Query: Query (molecule): NCc1cc(Oc2cccc(C(=O)N3C[C@@H](F)[C@@H](O)C3)c2)nc(C(F)(F)F)c1 (single isomer, unassigned) [Compound 1-250, hydrochloride] ; field requested: pIC50
Reply: > 6.52

Query: Query (molecule): NCc1cc(Oc2cccc(C(=O)NCc3nn[nH]n3)c2)nc(C(F)(F)F)c1 [Compound 1-13, hydrochloride] ; field requested: pIC50
Reply: > 6.52

Query: Query (molecule): NCc1cc(O[C@H]2CCCN(C(=O)Cc3ccc(Cl)c(Cl)c3)C2)nc(C(F)(F)F)c1 [Compound 1-47, trifluoroacetate] ; field requested: pIC50
Reply: > 6.52

Query: Query (molecule): NCc1cc(Oc2cccc3c2ccn3CC(=O)N2CCCCC2)nc(C(F)(F)F)c1 [Compound 1-56] ; field requested: pIC50
Reply: 6.00 to 6.52

Query: Query (molecule): C#C[C@@H](CC(=O)O)NC(=O)c1cccc(Oc2cc(CN)cc(C(F)(F)F)n2)c1 [Compound 1-223, hydrochloride] ; field requested: pIC50
Reply: 6.00 to 6.52

Query: Query (molecule): NCc1cc(OC[C@H]2CCCN(C(=O)Nc3ccccc3)C2)nc(C(F)(F)F)c1 [Compound 1-45, trifluoroacetate] ; field requested: pIC50
Reply: 6.00 to 6.52

Query: Query (molecule): NCc1cc(Oc2cccc3c2ccn3CC(=O)N2CCNCC2)nc(C(F)(F)F)c1 [Compound 1-233, dihydrochloride] ; field requested: pIC50
Reply: 6.00 to 6.52
